- ASSAY_PROCEDURE: pharmacokinetics after SC injection in ovariectomized mice
- Assay type: in vivo
- TEST_CONDITIONS: female, C57BL/6, mouse, serum, 100 ug, subcutaneous injection
MEASUREMENT_NAME: half-life

Look up half-life: Cc1cc(-c2ccc3c(c2)CCC3O)cc(C)c1O (racemic) [Compound 2]
~1 h

---

- SYSTEM: purified full-length human ERα (Homo sapiens, UniProt P03372)
- Construct: using purified full-length human ERα and ERβ
- Sequence (P03372 whole entry): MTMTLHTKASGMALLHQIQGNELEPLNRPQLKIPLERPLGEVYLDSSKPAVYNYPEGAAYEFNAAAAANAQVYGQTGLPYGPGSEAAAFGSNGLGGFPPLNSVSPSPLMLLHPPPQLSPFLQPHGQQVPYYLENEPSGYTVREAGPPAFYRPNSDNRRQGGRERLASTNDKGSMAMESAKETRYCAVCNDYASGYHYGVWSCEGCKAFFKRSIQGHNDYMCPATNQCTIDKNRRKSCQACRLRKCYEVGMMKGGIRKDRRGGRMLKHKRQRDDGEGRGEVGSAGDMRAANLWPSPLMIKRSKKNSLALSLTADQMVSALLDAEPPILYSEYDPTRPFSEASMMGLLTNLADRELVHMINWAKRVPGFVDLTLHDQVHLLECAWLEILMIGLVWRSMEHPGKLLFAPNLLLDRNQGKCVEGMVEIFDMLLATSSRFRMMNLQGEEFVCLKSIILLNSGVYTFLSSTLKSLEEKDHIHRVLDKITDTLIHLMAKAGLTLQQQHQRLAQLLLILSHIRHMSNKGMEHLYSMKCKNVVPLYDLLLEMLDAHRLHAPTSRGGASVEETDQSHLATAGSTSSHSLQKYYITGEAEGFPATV
- ASSAY_PROCEDURE: competitive radiometric binding assay, relative binding affinity (RBA)
- TEST_CONDITIONS: relative to estradiol = 100
# strict inequality: ERα RBA (relative binding affinity) < 0.003 yields True, everything else yields False

Example entries begin here.
{"COMPOUND": "Cc1cc(-c2cc(C)c(O)c(C)c2)ccc1CO", "ASSIGNED_LABEL": "True"}
{"COMPOUND": "Cc1cc(-c2ccc3c(c2)CCCC3O)cc(C)c1O (stereo not shown)", "ASSIGNED_LABEL": "True"}
{"COMPOUND": "Cc1cc(-c2ccc(O)cc2)cc(C)c1O", "ASSIGNED_LABEL": "False"}
{"COMPOUND": "Cc1cc(-c2cccc(CO)c2)cc(C)c1O", "ASSIGNED_LABEL": "False"}
{"COMPOUND": "C#CC1(O)CCc2cc(-c3cc(C)c(O)c(C)c3)ccc21 (stereo not shown)", "ASSIGNED_LABEL": "False"}
{"COMPOUND": "Cc1cc(-c2ccc(C(C)O)cc2)cc(C)c1O (stereo not shown)", "ASSIGNED_LABEL": "True"}
{"COMPOUND": "Cc1cc(C)cc(-c2ccc3c(c2)CCC3O)c1 (stereo not shown)", "ASSIGNED_LABEL": "True"}

Now take the following compound into account.
Consider Cc1cc(-c2ccc(CO)c(O)c2)cc(C)c1O . Does its ERα RBA (relative binding affinity) lie strictly below 0.003?
True

---

- SYSTEM: purified full-length human ERα (Homo sapiens, UniProt P03372)
- Construct: using purified full-length human ERα and ERβ
- ASSAY_PROCEDURE: competitive radiometric binding assay, relative binding affinity (RBA)
- TEST_CONDITIONS: relative to estradiol = 100
MEASUREMENT_NAME: ERα RBA (relative binding affinity)
Numbers only.

The following molecules have reported results that may help.
{"MOLECULE": "Cc1cc(-c2ccc(CCO)cc2)cc(C)c1O", "SYSTEM": "purified full-length human ERα (Homo sapiens, UniProt P03372)", "MEASUREMENT_NAME": "ERα RBA (relative binding affinity)", "MEAS_VALUE": 0.001}
{"MOLECULE": "Cc1cc(-c2ccc(CO)cc2)cc(C)c1O", "SYSTEM": "purified full-length human ERα (Homo sapiens, UniProt P03372)", "MEASUREMENT_NAME": "ERα RBA (relative binding affinity)", "MEAS_VALUE": 0.002}
{"MOLECULE": "Cc1cc(-c2ccc3c(c2)CCC3O)ccc1O (centres unmarked)", "SYSTEM": "purified full-length human ERα (Homo sapiens, UniProt P03372)", "MEASUREMENT_NAME": "ERα RBA (relative binding affinity)", "MEAS_VALUE": 0.002}

Look up ERα RBA (relative binding affinity): COC1CC(O)c2ccc(-c3cc(C)c(O)c(C)c3)cc21 (centres unmarked)
0.002
